- tested on: UniProt Q7Z2W7
- protocol: Assay on TRPM8 modulators: calcium imaging (Fluo-4, Flexstation) in HEK293 cell line stably expressing hTRPM8
- measurement setup: HEK293 cells stably expressing hTRPM8; calcium influx, Fluo-4, Flexstation 3; sigmoidal dose-response fit
readout: EC50

Query CSC(C)C(=O)N1CCCCC1c1ncc(-c2cc(F)c(F)cc2F)[nH]1 (stereo not drawn) yields EC50 of < 50 nM

Query O=C(CC(F)(F)C(F)(F)F)N1CCCCC1c1nc(-c2ccccc2)c[nH]1 (stereo not drawn) yields EC50 of 1000 to 35000 nM

New cases:
Query CSC(C)C(=O)N1CCCCC1c1nc(-c2ccc(C(C)O)cc2)c[nH]1 (stereo not drawn) yields EC50 of 50 to 300 nM

---

In this section we review reported EC50 values for a set of compounds.
- tested on: hTRPM8 (Homo sapiens, UniProt Q7Z2W7)
- Sequence (Q7Z2W7 whole entry): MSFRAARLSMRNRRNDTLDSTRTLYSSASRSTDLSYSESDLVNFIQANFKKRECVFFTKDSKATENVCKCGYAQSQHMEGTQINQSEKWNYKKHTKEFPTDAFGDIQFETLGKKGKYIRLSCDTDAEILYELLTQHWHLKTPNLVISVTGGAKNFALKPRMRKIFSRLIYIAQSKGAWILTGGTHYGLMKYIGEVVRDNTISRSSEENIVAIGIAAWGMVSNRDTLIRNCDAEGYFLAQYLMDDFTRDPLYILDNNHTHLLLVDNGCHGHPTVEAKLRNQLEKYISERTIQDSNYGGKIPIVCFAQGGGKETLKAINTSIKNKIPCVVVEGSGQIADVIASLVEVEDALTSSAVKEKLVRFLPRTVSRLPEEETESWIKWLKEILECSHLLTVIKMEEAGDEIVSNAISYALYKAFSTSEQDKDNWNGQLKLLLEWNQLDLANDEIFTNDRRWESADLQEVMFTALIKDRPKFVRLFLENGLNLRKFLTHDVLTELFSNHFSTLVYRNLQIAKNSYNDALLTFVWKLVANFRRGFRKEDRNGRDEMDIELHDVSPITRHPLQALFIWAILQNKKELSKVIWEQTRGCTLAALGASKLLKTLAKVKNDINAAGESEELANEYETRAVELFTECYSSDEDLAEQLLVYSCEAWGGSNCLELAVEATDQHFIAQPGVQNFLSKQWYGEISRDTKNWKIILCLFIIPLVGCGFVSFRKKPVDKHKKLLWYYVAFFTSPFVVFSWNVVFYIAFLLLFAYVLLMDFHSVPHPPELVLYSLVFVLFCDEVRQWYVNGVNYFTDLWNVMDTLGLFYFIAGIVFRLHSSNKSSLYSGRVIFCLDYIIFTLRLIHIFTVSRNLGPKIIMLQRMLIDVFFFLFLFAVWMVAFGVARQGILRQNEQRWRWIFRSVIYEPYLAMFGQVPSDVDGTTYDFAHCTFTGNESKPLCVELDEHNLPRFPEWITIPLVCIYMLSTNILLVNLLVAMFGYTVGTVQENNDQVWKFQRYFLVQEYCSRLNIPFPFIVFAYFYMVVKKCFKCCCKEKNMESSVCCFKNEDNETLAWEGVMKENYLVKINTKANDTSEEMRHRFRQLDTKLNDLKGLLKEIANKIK
- protocol: Assay on TRPM8 modulators: calcium imaging (Fluo-4, Flexstation) in HEK293 cell line stably expressing hTRPM8
- measurement setup: HEK293 cells stably expressing hTRPM8; calcium influx, Fluo-4, Flexstation 3; sigmoidal dose-response fit

Known results for compounds:
Short answer on hTRPM8 (Homo sapiens, UniProt Q7Z2W7) for COCc1ccc(-c2cnc(C3CCCCN3C(=O)C(C)SC)[nH]2)cc1F (stereo not shown) [Compound 64] , EC50: 50 to 300 nM

Short answer on hTRPM8 (Homo sapiens, UniProt Q7Z2W7) for CSC(C)C(=O)N1CCCCC1c1ncc(-c2cccc(F)c2F)[nH]1 (stereo not shown) [Compound 53] , EC50: 50 to 300 nM

Short answer on hTRPM8 (Homo sapiens, UniProt Q7Z2W7) for COC(C(=O)N1CCCCC1c1nc(-c2ccccc2)c[nH]1)C1CC1 (stereo not shown) [Compound 152] , EC50: 300 to 1000 nM

New cases:
Short answer on hTRPM8 (Homo sapiens, UniProt Q7Z2W7) for CSC(C)C(=O)N1CCCCC1c1nc(-c2ccc(F)cc2)c[nH]1 (stereo not shown) [Compound 38] , EC50: < 50 nM

---

In this section we review reported pEC50 values for a set of molecules.
- tested on: hTRPM8 (Homo sapiens)
- protocol: Assay on TRPM8 modulators: calcium imaging (Fluo-4, Flexstation) in HEK293 cell line stably expressing hTRPM8
- measurement setup: HEK293 cells stably expressing hTRPM8; calcium influx, Fluo-4, Flexstation 3; sigmoidal dose-response fit
pEC50: −log10 of the molar value.

Known results for molecules:
Query CSC(C)C(=O)N1CCCCC1c1ncc(-c2ccc(C)cc2F)[nH]1 (stereo not shown) yields pEC50 of > 7.30

Query CCOC(C(=O)N1CCCCC1c1nc(-c2ccccc2)c[nH]1)C1CCCC1 (stereo not shown) yields pEC50 of 4.46 to 6.00

Query CSC(C)C(=O)N1CCCCC1c1nc(-c2ccccc2Cl)c[nH]1 (stereo not shown) yields pEC50 of > 7.30

New cases:
Query CSC(C)C(=O)N1CCCCC1c1cc(-c2ccc(C)cc2)on1 (stereo not shown) yields pEC50 of 6.52 to 7.30

Query C=C(CC)C(=O)N1CCCCC1c1ncc(-c2ccc(C)cc2)[nH]1 (stereo not shown) yields pEC50 of > 7.30

Query CCC(C)C(=O)N1CCCCC1c1ncc(-c2ccc(Cl)cc2)[nH]1 (stereo not shown) yields pEC50 of > 7.30

---

- tested on: hTRPM8 (Homo sapiens, UniProt Q7Z2W7)
- protocol: Assay on TRPM8 modulators: calcium imaging (Fluo-4, Flexstation) in HEK293 cell line stably expressing hTRPM8
- measurement setup: HEK293 cells stably expressing hTRPM8; calcium influx, Fluo-4, Flexstation 3; sigmoidal dose-response fit
In this section we review reported EC50 values for a set of compounds.

Known results for compounds:
Query CSC(C)C(=O)N1CCCCC1c1ncc(-c2ccc(F)cc2F)[nH]1 (stereo not shown) [Compound 54] yields EC50 of < 50 nM

Query O=C(CC1CC1)N1CCCCC1c1nc(-c2ccccc2)c[nH]1 (stereo not shown) [Compound 150] yields EC50 of 1000 to 35000 nM

Query CC(C(=O)N1CCCCC1c1nc(-c2ccccc2)c[nH]1)S(C)(=O)=O (stereo not shown) [Compound 103] yields EC50 of 1000 to 35000 nM

New cases:
Query O=C(Cc1ccco1)N1CCCCC1c1nc(-c2ccccc2)c[nH]1 (stereo not shown) [Compound 96] yields EC50 of 1000 to 35000 nM

Query CSC(C)C(=O)N1CCCCC1c1ncc(-c2ccccc2C#N)[nH]1 (stereo not shown) [Compound 89] yields EC50 of 300 to 1000 nM

Query CO[C@@H]1C[C@H]1C(=O)N1CCCCC1c1nc(-c2ccccc2)c[nH]1 (relative stereo) [Compound 5] yields EC50 of 1000 to 35000 nM

Query CSC(C)C(=O)N1CCCCC1c1ncc(-c2ccc(CO)cc2)[nH]1 (stereo not shown) [Compound 73] yields EC50 of 300 to 1000 nM

Query CSC(C)C(=O)N1CCCCC1c1nc(-c2occc2C)c[nH]1 (stereo not shown) [Compound 29] yields EC50 of 50 to 300 nM

Query CSC(C)C(=O)N1CCCCC1c1nc(-c2ccc(C)c(C(F)(F)F)c2)c[nH]1 (stereo not shown) [Compound 41] yields EC50 of 50 to 300 nM

Query C=Cc1ccc(-c2cnc(C3CCCCN3C(=O)C(C)SC)[nH]2)cc1 (stereo not shown) [Compound 126] yields EC50 of < 50 nM

Query CSC(C)C(=O)N1CCCCC1c1ncc(-c2ccc(Cl)cc2)[nH]1 (stereo not shown) [Compound 77] yields EC50 of < 50 nM

Query CCC(C)C(=O)N1CCCCC1c1ncc(-c2ccc(CC#N)cc2)[nH]1 (stereo not shown) [Compound 197] yields EC50 of < 50 nM

Query CS[C@@H](C)C(=O)N1CCCC[C@@H]1c1ncc(-c2ccc(C)cc2)[nH]1 [Compound 12] yields EC50 of < 50 nM

Query CSC(C)C(=O)N1CCCCC1c1ncc(-c2ccc(N(C)C)cc2)[nH]1 (stereo not shown) [Compound 72] yields EC50 of 50 to 300 nM

Query Cc1ccc(-c2cnc(C3CCCCN3C(=O)C(C)N)[nH]2)cc1 (stereo not shown) [Compound 147] yields EC50 of 1000 to 35000 nM

Query CSC(C)C(=O)N1CCCCC1c1nc(-c2ccc(O)cc2)c[nH]1 (stereo not shown) [Compound 39] yields EC50 of < 50 nM

Query COC(C)C(=O)N1CCCCC1c1ncc(-c2ccc(C)cc2)[nH]1 (stereo not shown) [Compound 160] yields EC50 of 50 to 300 nM

Query CSC(C)C(=O)N1CCCCC1c1ncc(-c2ccc(CC#N)cc2)[nH]1 (stereo not shown) [Compound 196] yields EC50 of < 50 nM

Query CSC(C)C(=O)N1CCCCC1c1nc(-c2cscc2C(F)F)c[nH]1 (stereo not shown) [Compound 33] yields EC50 of 50 to 300 nM

---

- tested on: hTRPM8 (Homo sapiens, UniProt Q7Z2W7)
- protocol: Assay on TRPM8 modulators: calcium imaging (Fluo-4, Flexstation) in HEK293 cell line stably expressing hTRPM8
- measurement setup: HEK293 cells stably expressing hTRPM8; calcium influx, Fluo-4, Flexstation 3; sigmoidal dose-response fit
- Method: A HEK293 cell line stably expressing hTRPM8 was generated according to Klein of at, (Chem. Senses 36: […], 2011) and receptor activation was monitored by calcium imaging in a Flexstation. […] On day 2, agonists were evaluated via calcium imaging using Fluo-4. […] The cells were then washed five times with 100 μL assay buffer and then calcium influx to serial dilutions of inventive compounds were measured in a Flexstation 3 (Molecular Devices). […]
pEC50: −log10 of the molar value.
In this section we review reported pEC50 values for a set of compounds.

Query CSC(C)C(=O)N1CCCCC1c1ncc(-c2cc(F)ccc2F)[nH]1 (stereo not shown) [Compound 55] yields pEC50 of > 7.30

Query CSC(C)C(=O)N1CCCCC1c1ncc(-c2cccc(C(F)(F)F)c2)[nH]1 (stereo not shown) [Compound 122] yields pEC50 of 6.52 to 7.30

Query CSC(C)C(=O)N1CCCCC1c1nc(-c2cnc(C3CC3)o2)c[nH]1 (stereo not shown) [Compound 22] yields pEC50 of 6.52 to 7.30

Query CSC(C)C(=O)N1CCCCC1c1nnc(-c2ccc(C)cc2)o1 (stereo not shown) [Compound 128] yields pEC50 of 6.00 to 6.52

Query CSC(C)C(=O)N1CCCCC1c1ncc(Cc2ccccc2)[nH]1 (stereo not shown) [Compound 87] yields pEC50 of 4.46 to 6.00

Query CSC(C)C(=O)N1CCCCC1c1nc(-c2ccc(S(=O)(=O)NCCO)cc2)c[nH]1 (stereo not shown) [Compound 189] yields pEC50 of 4.46 to 6.00

Query CSC(C)C(=O)N1CCCCC1c1nc(-c2ccc3nccnc3c2)c[nH]1 (stereo not shown) [Compound 116] yields pEC50 of 6.00 to 6.52

Query CS(=O)(=O)CC(=O)N1CCCCC1c1nc(-c2ccccc2)c[nH]1 (stereo not shown) [Compound 102] yields pEC50 of 4.46 to 6.00

Query CSC(C)C(=O)N1CCCCC1c1ncc(-c2ccc(C=O)cc2)[nH]1 (stereo not shown) [Compound 182] yields pEC50 of > 7.30

Query CSCC(C)C(=O)N1CCCCC1c1nc(-c2ccccc2)c[nH]1 (stereo not shown) [Compound 172] yields pEC50 of 6.00 to 6.52

New cases:
Query CSc1cc(C)c(-c2cnc(C3CCCCN3C(=O)C(C)SC)[nH]2)cn1 (stereo not shown) [Compound 82] yields pEC50 of 6.00 to 6.52

Query CSC(C)C(=O)N1CCCCC1c1ncc(-c2ccc(C)c(C)c2)[nH]1 (stereo not shown) [Compound 63] yields pEC50 of > 7.30

Query CCSC(C)C(=O)N1CCCCC1c1ncc(-c2ccc(C)cc2)[nH]1 (stereo not shown) [Compound 95] yields pEC50 of > 7.30

Query CSC(C)C(=O)N1CCCCC1c1nc(-c2ccc(C(F)(F)F)o2)c[nH]1 (stereo not shown) [Compound 108] yields pEC50 of > 7.30

Query CSC(C)C(=O)N1CCCCC1c1nc(-c2ccc(C(F)(F)F)s2)c[nH]1 (stereo not shown) [Compound 109] yields pEC50 of > 7.30

Query CCC(C)C(=O)N1CCCCC1c1ncc(-c2ccc(C)cc2)[nH]1 (stereo not shown) [Compound 164] yields pEC50 of > 7.30

Query CC(C(=O)N1CCCCC1c1nc(-c2ccccc2)c[nH]1)c1ccco1 (stereo not shown) [Compound 97] yields pEC50 of 6.52 to 7.30

Query CSC(C)C(=O)N1CCCCC1c1nc(-c2cccc(CN(C)C)c2)c[nH]1 (stereo not shown) [Compound 25] yields pEC50 of 6.00 to 6.52

Query CSC(C)C(=O)N1CCCCC1c1nnc(-c2ccccc2)[nH]1 (stereo not shown) [Compound 137] yields pEC50 of 6.52 to 7.30
